test system: Pseudomonas aeruginosa W1; assay: MIC on clinically isolated bacteria; assay type: cell-based; settings: read-out: MIC
Measured endpoint: MIC (µg/mL)

The following compounds have reported results that may help.
CC1(C)[C@H](NC(=O)/C(=N\O[C@@H](COc2ccc3c(c2)CN(C(=N)NOCCN)C3)C(=O)O)c2csc(N)n2)C(=O)N1OS(=O)(=O)O :: 8
CC1(C)[C@H](NC(=O)/C(=N\O[C@@H](COc2ccc3c(c2)CN(C(=N)N(CCN)CCN)C3)C(=O)O)c2csc(N)n2)C(=O)N1OS(=O)(=O)O :: 16
CC1(C)[C@H](NC(=O)/C(=N\O[C@@H](COc2ccc3c(c2)CN(C(=N)NCCCCN)C3)C(=O)O)c2csc(N)n2)C(=O)N1OS(=O)(=O)O :: 0.5

I. CC1(C)[C@H](NC(=O)/C(=N\O[C@@H](COc2ccc3c(c2)CN(C(=N)N[C@@H]2CCCNC2)C3)C(=O)O)c2csc(N)n2)C(=O)N1OS(=O)(=O)O
II. CC1(C)[C@H](NC(=O)/C(=N\O[C@@H](COc2ccc3c(c2)CN(/C(=N\[C@@H]2CCCNC2)N[C@@H]2CCCNC2)C3)C(=O)O)c2csc(N)n2)C(=O)N1OS(=O)(=O)O
Field: entry with larger MIC (options I / II ). Indicate your choice by writing its label.
I

----------
E. coli MG1655Δtol C: reported MIC for various compounds.

CC1(C)[C@H](NC(=O)/C(=N\OCCOc2ccc3c(c2)CCN(CCCNC(=N)N)C3)c2csc(N)n2)C(=O)N1OS(=O)(=O)O [Compound 7] :: ≤ 0.125 µg/mL
C[C@@H](O)[C@H]1C(=O)N2C(C(=O)O)=C(S[C@@H]3CN[C@H](C(=O)N(C)C)C3)[C@H](C)[C@H]12 [Meropenem, reference compound] :: ≤ 0.125 µg/mL
CC1(C)[C@H](C(=O)O)N2C(=O)C[C@H]2S1(=O)=O [Sulbactam, reference compound] :: 32 µg/mL

Then this compound:
Please indicate recorded MIC of C[C@H]1[C@H](NC(=O)/C(=N\OC(C)(C)C(=O)O)c2csc(N)n2)C(=O)N1S(=O)(=O)O [Aztreonam, reference compound] measured with E. coli MG1655Δtol C.
≤ 0.125 µg/mL

----------
tested on: Pseudomonas aeruginosa W29; assay: MIC on clinically isolated bacteria; type: cell-based; conditions: read-out: MIC
Measured endpoint: MIC (µg/mL)

The following compounds have reported results that may help.
C[C@@H](O)[C@H]1C(=O)N2C(C(=O)O)=C(S[C@@H]3CN[C@H](C(=O)N(C)C)C3)[C@H](C)[C@H]12 [Meropenem, reference compound] :: 4
CC1(C)[C@H](NC(=O)/C(=N\O[C@@H](COc2ccc3c(c2)CN(C(=N)NOCCN)C3)C(=O)O)c2csc(N)n2)C(=O)N1OS(=O)(=O)O [Compound 43] :: 8
CC1(C)[C@H](NC(=O)/C(=N\O[C@@H](COc2ccc3c(c2)CN(C(=N)N[C@@H]2CCCNC2)C3)C(=O)O)c2csc(N)n2)C(=O)N1OS(=O)(=O)O [Compound 41] :: 1
CC1(C)[C@H](NC(=O)/C(=N\O[C@@H](COc2ccc3c(c2)CN(C(=N)NCCCCN)C3)C(=O)O)c2csc(N)n2)C(=O)N1OS(=O)(=O)O [Compound 36] :: 0.5
CC1(C)[C@H](NC(=O)/C(=N\O[C@@H](COc2ccc3c(c2)CN(C(=N)NCCN)C3)C(=O)O)c2csc(N)n2)C(=O)N1OS(=O)(=O)O [Compound 44] :: 2
C[C@H]1[C@H](NC(=O)/C(=N\OC(C)(C)C(=O)O)c2csc(N)n2)C(=O)N1S(=O)(=O)O [Aztreonam, reference compound] :: 32

1. CC1(C)[C@H](NC(=O)/C(=N\O[C@@H](COc2ccc3c(c2)CN(/C(=N\[C@@H]2CCCNC2)N[C@@H]2CCCNC2)C3)C(=O)O)c2csc(N)n2)C(=O)N1OS(=O)(=O)O [Compound 46]
2. CC1(C)[C@H](NC(=O)/C(=N\O[C@@H](COc2ccc3c(c2)CN(C(=N)N(CCN)CCN)C3)C(=O)O)c2csc(N)n2)C(=O)N1OS(=O)(=O)O [Compound 45]
Field: entry with larger MIC (options 1 / 2 ). Indicate your choice by writing its label.
2
(2: 16 µg/mL, 1: 1 µg/mL)

----------
system: Acinetobacter baumannii ATCC-BAA-1799; assay: MIC on Acinetobacter baumannii strains; format: cell-based; details: ATCCBAA1799, ATCC-BAA-1799, read-out: MIC
// reported MIC per item
Please give a number only; it is taken to be in µg/mL.

The following compounds have reported results that may help.
CC1(C)[C@H](NC(=O)/C(=N\OCCOc2ccc3c(c2)CC[N+](C)(CCCN)C3)c2csc(N)n2)C(=O)N1OS(=O)(=O)[O-] (some centres unmarked) :: 16
CC1(C)[C@H](NC(=O)/C(=N\OCCOc2ccc3c(c2)CCN(CCCN)C3)c2csc(N)n2)C(=O)N1OS(=O)(=O)O :: 8

Input `CC1(C)[C@H](NC(=O)/C(=N\OCCOc2ccc3c(c2)CCN(CCCNC(=N)N)C3)c2csc(N)n2)C(=O)N1OS(=O)(=O)O` , output reported MIC.
8

Input C[C@@H](O)[C@H]1C(=O)N2C(C(=O)O)=C(SCCN=CN)C[C@H]12 [Imipenem, reference compound] , output reported MIC.
64

Input `CC1(C)[C@H](NC(=O)/C(=N\OCCOc2ccc3c(c2)CCN(C(=N)N)C3)c2csc(N)n2)C(=O)N1OS(=O)(=O)O` , output reported MIC.
16

----------
system: Pseudomonas aeruginosa W1; assay: MIC on clinically isolated bacteria; format: cell-based; conditions: read-out: MIC
// reported MIC per item
Please give a number only; it is taken to be in µg/mL.

Input CC1(C)[C@H](NC(=O)/C(=N\O[C@@H](COc2ccc3c(c2)CN(C(=N)NCCN)C3)C(=O)O)c2csc(N)n2)C(=O)N1OS(=O)(=O)O [Compound 44] , output reported MIC.
2

Input C[C@H]1[C@H](NC(=O)/C(=N\OC(C)(C)C(=O)O)c2csc(N)n2)C(=O)N1S(=O)(=O)O [Aztreonam, reference compound] , output reported MIC.
32

Input C[C@@H](O)[C@H]1C(=O)N2C(C(=O)O)=C(S[C@@H]3CN[C@H](C(=O)N(C)C)C3)[C@H](C)[C@H]12 [Meropenem, reference compound] , output reported MIC.
4
